From: patent US11629146B2

Molecular target: human NaV1.6 (hNaV1.6) (Homo sapiens (Human), UniProt Q9UQD0)
Sequence (Q9UQD0 whole entry): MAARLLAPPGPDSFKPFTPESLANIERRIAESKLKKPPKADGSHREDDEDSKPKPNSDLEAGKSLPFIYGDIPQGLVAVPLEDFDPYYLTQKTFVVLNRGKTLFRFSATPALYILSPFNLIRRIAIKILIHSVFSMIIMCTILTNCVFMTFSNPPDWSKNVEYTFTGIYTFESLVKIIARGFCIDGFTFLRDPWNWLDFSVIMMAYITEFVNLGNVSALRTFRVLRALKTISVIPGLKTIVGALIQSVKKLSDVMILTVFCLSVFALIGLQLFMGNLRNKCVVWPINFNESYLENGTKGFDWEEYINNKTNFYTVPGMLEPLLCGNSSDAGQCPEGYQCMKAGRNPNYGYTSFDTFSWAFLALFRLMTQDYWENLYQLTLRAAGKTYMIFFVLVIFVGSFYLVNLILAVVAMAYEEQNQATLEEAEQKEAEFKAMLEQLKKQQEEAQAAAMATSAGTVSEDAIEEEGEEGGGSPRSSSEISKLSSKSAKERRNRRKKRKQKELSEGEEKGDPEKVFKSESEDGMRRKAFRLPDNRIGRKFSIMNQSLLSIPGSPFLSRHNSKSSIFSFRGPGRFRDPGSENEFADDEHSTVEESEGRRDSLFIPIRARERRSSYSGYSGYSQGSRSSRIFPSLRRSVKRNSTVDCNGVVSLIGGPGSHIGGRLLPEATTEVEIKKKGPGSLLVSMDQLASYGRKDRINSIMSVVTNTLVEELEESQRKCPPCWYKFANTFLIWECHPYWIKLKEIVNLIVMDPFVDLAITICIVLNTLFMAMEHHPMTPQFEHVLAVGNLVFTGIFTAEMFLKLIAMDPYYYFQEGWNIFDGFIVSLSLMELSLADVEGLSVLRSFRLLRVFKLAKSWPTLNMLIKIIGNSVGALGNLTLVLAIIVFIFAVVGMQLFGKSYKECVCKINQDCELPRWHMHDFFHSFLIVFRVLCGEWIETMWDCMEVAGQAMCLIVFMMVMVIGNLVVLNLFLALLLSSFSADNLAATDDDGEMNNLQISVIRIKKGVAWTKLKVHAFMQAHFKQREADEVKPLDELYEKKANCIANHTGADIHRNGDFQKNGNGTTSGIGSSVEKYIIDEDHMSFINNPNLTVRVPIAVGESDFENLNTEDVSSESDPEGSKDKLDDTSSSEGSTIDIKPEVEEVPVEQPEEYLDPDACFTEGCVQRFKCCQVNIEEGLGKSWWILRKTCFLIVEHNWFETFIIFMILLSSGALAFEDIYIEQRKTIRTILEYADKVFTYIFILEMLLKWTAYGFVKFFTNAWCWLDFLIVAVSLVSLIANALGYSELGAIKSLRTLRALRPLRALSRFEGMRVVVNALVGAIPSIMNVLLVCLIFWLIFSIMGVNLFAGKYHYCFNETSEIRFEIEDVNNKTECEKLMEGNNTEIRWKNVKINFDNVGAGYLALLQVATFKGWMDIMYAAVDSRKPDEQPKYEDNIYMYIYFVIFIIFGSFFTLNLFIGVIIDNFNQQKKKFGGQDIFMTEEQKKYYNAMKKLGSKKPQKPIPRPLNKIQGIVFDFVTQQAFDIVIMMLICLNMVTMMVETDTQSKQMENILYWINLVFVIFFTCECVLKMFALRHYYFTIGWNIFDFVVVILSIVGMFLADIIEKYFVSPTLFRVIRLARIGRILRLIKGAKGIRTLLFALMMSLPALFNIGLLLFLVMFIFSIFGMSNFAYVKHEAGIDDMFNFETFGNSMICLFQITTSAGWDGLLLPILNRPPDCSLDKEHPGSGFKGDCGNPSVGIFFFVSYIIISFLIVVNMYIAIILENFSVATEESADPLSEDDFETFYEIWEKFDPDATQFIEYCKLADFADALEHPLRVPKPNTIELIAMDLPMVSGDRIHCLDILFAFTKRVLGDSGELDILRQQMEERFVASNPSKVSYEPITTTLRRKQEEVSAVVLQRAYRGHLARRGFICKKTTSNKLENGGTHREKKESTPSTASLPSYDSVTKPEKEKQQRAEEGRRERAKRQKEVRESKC
Test: INaL inhibition at hNaV1.6, PatchXpress electrophysiology
Type: cell-based
Details: HEK293; 1 μM; HEK-293 cells expressing hNaV1.6; late current evoked by 300 nM ATX-II; read-out: INaL v1.6 (1 μM, % Inhibition)
Items are presented alongside their recorded inhibition at 1 µM.
observation type: inhibition at 1 µM

[[record]]
item_smiles = "Cc1cc(OC2CC(F)(F)C2)ccc1-c1cn2c(C(F)(F)F)nnc2cn1"
reported_value = "30 to 70%"

[[record]]
item_smiles = "FC(F)c1nnc2cnc(-c3ccc(OCC(F)(F)F)nc3)cn12"
reported_value = "30 to 70%"

[[record]]
item_smiles = "Fc1ccc(Oc2nnc3cnc(-c4cnc(OCC(F)(F)F)c(F)c4)cn23)cc1"
reported_value = "30 to 70%"

[[record]]
item_smiles = "Cc1cc(C(F)(F)F)ccc1-c1ccc2nnc(C(F)(F)F)n2n1"
reported_value = "> 70%"

[[record]]
item_smiles = "FC(F)(F)COc1ccc(-c2ccc3nnc(C(F)(F)C(F)(F)F)n3n2)cn1"
reported_value = "30 to 70%"


###

Assay: PK rat clearance experiment
Format: in vivo
Settings: male Sprague-Dawley rats, single intravenous bolus 0.5 mg/kg, plasma
Items are presented alongside their recorded half-life.
observation type: half-life

[[record]]
item_smiles = "FC1(F)CC(Oc2ccc(-c3ccc4nnc(C(F)(F)F)n4n3)cc2)C1"
reported_value = "0.8 h"

[[record]]
item_smiles = "Fc1cc(-c2ccc3nnc(C(F)(F)F)n3n2)ccc1OC(F)(F)F"
reported_value = "15.4 h"

[[record]]
item_smiles = "Fc1cc(-c2ccc3nnc(C(F)(F)F)n3n2)cnc1OCC(F)(F)F"
reported_value = "1.9 h"

[[record]]
item_smiles = "FC1(F)CC(c2nnc3ccc(-c4ccc(OC(F)(F)F)cc4)nn23)C1"
reported_value = "1.4 h"

[[record]]
item_smiles = "Cc1cc(OC(F)(F)F)ccc1-c1cn2c(C(F)(F)F)nnc2cn1"
reported_value = "10.2 h"

[[record]]
item_smiles = "COc1cc(OC(F)(F)F)ccc1-c1ccc2nnc(C(F)F)n2n1"
reported_value = "0.49 h"

[[record]]
item_smiles = "Cc1cc(C(F)(F)F)ccc1-c1ccc2nnc(C(F)(F)F)n2n1"
reported_value = "6.7 h"

[[record]]
item_smiles = "N#CC1(c2ccc(-c3ccc4nnc(C(F)(F)F)n4n3)cc2)CC1"
reported_value = "1.4 h"

[[record]]
item_smiles = "Fc1cc(OC(F)(F)F)ccc1-c1ccc2nnc(C(F)(F)F)n2n1"
reported_value = "21.9 h"


###

Test: PK rat clearance experiment
Type: in vivo
Details: male Sprague-Dawley rats, single intravenous bolus 0.5 mg/kg, plasma
Items are presented alongside their recorded half-life.
observation type: half-life (min)

[[record]]
compound = "FC(F)(F)Oc1ccc(-c2ccc3nnc(C4(F)CC4)n3n2)cc1"
unit_abbreviation = "min"
reported_value = 912

[[record]]
compound = "FC(F)(F)Cc1nnc2ccc(-c3ccc(OC(F)(F)F)cc3)nn12"
unit_abbreviation = "min"
reported_value = 192

[[record]]
compound = "FC(F)(F)COc1ccc(-c2ccc3nnc(C(F)(F)F)n3n2)cn1"
unit_abbreviation = "min"
reported_value = 21.6

[[record]]
compound = "FC1(F)CC(Oc2ccc(-c3ccc4nnc(C(F)(F)F)n4n3)cn2)C1"
unit_abbreviation = "min"
reported_value = 33

[[record]]
compound = "COc1cc(C2(C#N)CC2)ccc1-c1ccc2nnc(C(F)(F)F)n2n1"
unit_abbreviation = "min"
reported_value = 36

[[record]]
compound = "C[C@@H](Oc1ncc(-c2cn3c(C(F)(F)F)nnc3cn2)cc1F)C(F)(F)F (single isomer, unassigned)"
unit_abbreviation = "min"
reported_value = 390

[[record]]
compound = "Cc1cc(OC(F)(F)F)ccc1-c1cn2c(C(F)F)nnc2cn1"
unit_abbreviation = "min"
reported_value = 486

